Biological target: UniProt Q9Y5N1
Assay: Displacement of [3H]N-alpha-methylhistamine from recombinant human histamine H3 receptor expressed in HEK293 cells after 90 mins
Type: cell-based
pKi: −log10 of the molar value.
Property Measured: pKi

Example compounds with recorded pKi:
{"Sample Smiles": "OC1CCN(Cc2ccc(OCCCN3CCCCC3)cc2)CC1", "Assay System": "UniProt Q9Y5N1", "Numeric Value": 9.23}
{"Sample Smiles": "O=C(O)C1CCN(Cc2ccc(OCCCN3CCCCC3)cc2)CC1", "Assay System": "UniProt Q9Y5N1", "Numeric Value": 7.89}
{"Sample Smiles": "Cc1nnc(C2CCN(Cc3ccc(OCCCN4CCCCC4)cc3)CC2)o1", "Assay System": "UniProt Q9Y5N1", "Numeric Value": 9.32}

I. CCOC(=O)C1CCN(Cc2ccc(OCCCN3CCCCC3)cc2)CC1
II. OCC1CCN(Cc2ccc(OCCCN3CCCCC3)cc2)CC1
Could you tell me which of these two has the smaller pKi figure? First: I Second: II The response must carry the label of the picked entry. II

---

Biological target: Histamine H3 receptor (Homo sapiens)
Sequence (Q9Y5N1 whole entry): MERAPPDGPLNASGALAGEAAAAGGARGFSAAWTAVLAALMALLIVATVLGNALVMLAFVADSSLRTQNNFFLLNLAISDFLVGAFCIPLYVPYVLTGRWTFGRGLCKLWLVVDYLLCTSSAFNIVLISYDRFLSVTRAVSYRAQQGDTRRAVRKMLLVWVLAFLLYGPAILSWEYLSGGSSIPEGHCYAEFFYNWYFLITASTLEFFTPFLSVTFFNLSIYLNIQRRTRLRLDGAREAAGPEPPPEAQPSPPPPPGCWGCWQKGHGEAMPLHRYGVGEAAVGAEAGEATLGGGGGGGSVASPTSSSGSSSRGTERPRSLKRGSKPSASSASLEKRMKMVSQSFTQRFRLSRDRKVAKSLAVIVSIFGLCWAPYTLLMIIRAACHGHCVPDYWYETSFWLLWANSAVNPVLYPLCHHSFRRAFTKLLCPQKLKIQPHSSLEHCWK
Assay: Displacement of [125I]Iodoproxyfan from recombinant human histamine H3 receptor expressed in HEK293 cells after 90 mins
Assay type: cell-based
pKi: −log10 of the molar value.
Property Measured: pKi

See these solved cases before continuing.
{"Sample Smiles": "O=C1CCN(Cc2ccc(OCCCN3CCCCC3)cc2)CC1", "Property Measured": "pKi", "Numeric Value": 8.60}
{"Sample Smiles": "CCNC(=O)C1CCN(Cc2ccc(OCCCN3CCCCC3)cc2)CC1", "Property Measured": "pKi", "Numeric Value": 8.53}
{"Sample Smiles": "c1cc(OCCCN2CCCCC2)ccc1CN1CCC2(CC1)OCCO2", "Property Measured": "pKi", "Numeric Value": 8.69}

A. c1ccc2c(c1)CCN(Cc1ccc(OCCCN3CCCCC3)cc1)C2
B. C#CCNC(=O)C1CCN(Cc2ccc(OCCCN3CCCCC3)cc2)CC1
Of A and B , whose reported pKi is numerically smaller? Lab note: record the label of whichever item you select. B
